Source: patent US20020137929A1

Reported herbicidal rating CHEAL values follow for various compounds
Test system: CHEAL (Lambsquarters, Common)
Test: Postemergence herbicidal evaluation
Type: in vivo, Chenopodium album
Details: postemergence, rate 0.0156 kg/ha

[
  {
    "TEST SMILES": "CSCCN1C(=O)CSC1=Nc1cc(-n2c(=O)cc(C(F)(F)F)n(C)c2=O)c(F)cc1Cl",
    "herbicidal rating CHEAL": 2.0
  },
  {
    "TEST SMILES": "COc1ccc(CN2C(=O)CSC2=Nc2cc(-n3c(=O)cc(C(F)(F)F)n(C)c3=O)c(F)cc2Cl)cc1OC",
    "herbicidal rating CHEAL": 1.0
  },
  {
    "TEST SMILES": "Cn1c(C(F)(F)F)cc(=O)n(-c2cc(N=C3SCC(=O)N3Cc3ccc(Br)cc3)c(Cl)cc2F)c1=O",
    "herbicidal rating CHEAL": 4.0
  },
  {
    "TEST SMILES": "COc1ccc(CN2C(=O)CSC2=Nc2cc(-n3c(=O)cc(C(F)(F)F)n(C)c3=O)c(F)cc2Cl)c(OC)c1",
    "herbicidal rating CHEAL": 9.0
  }
]

----------
Reported TRZAWR preemergence herbicidal rating values follow for various molecules
Test system: TRZAWR (Wheat, Winter, cv Riband)
Assay: Preemergence herbicidal evaluation
Format: in vivo, Triticum aestivum
Conditions: rate 0.2500 kg/ha; rated 4-5 weeks after treatment

[
  {
    "MOLECULE": "CCOC(=O)CN1C(=O)C(=Cc2ccc(F)cc2)SC1=Nc1cc(-n2c(=O)cc(C(F)(F)F)n(C)c2=O)c(F)cc1Cl [Compound 21]",
    "TRZAWR preemergence herbicidal rating": 0.0
  },
  {
    "MOLECULE": "CN1C(=O)C(F)SC1=Nc1cc(N2C(=O)C3=C(CCCC3)C2=O)c(F)cc1Cl (centres unmarked) [Compound 5]",
    "TRZAWR preemergence herbicidal rating": 1.0
  },
  {
    "MOLECULE": "CCOC(=O)CN1C(=O)C(F)SC1=Nc1cc(-n2c(=O)cc(C(F)(F)F)n(C)c2=O)c(F)cc1Cl (centres unmarked) [Compound 11]",
    "TRZAWR preemergence herbicidal rating": 5.0
  },
  {
    "MOLECULE": "CCOC(=O)CN1C(=O)C(=C2CCCC2)SC1=Nc1cc(-n2c(=O)cc(C(F)(F)F)n(C)c2=O)c(F)cc1Cl [Compound 18]",
    "TRZAWR preemergence herbicidal rating": 0.0
  },
  {
    "MOLECULE": "CCOC(=O)CN1C(=O)C(CC)SC1=Nc1cc(-n2c(=O)cc(C(F)(F)F)n(C)c2=O)c(F)cc1Cl (centres unmarked) [Compound 13]",
    "TRZAWR preemergence herbicidal rating": 6.0
  }
]

----------
Reported herbicidal rating ECHCG values follow for various compounds
System: ECHCG (Barnyardgrass)
Assay: Postemergence herbicidal evaluation
Format: in vivo, Echinochloa crus-galli
Details: postemergence, rate 0.0625 kg/ha
PROPERTY NAME: herbicidal rating ECHCG

[
  {
    "COMPOUND": "CCOC(=O)CN1C(=O)C(CC(=O)NS(=O)(=O)c2ccccc2)SC1=Nc1cc(-n2c(=O)cc(C(F)(F)F)n(C)c2=O)c(F)cc1Cl (stereo not drawn) [Compound 100]",
    "ASSAY SYSTEM": "ECHCG (Barnyardgrass)",
    "NUMBER": 4.0
  },
  {
    "COMPOUND": "CN1C(=O)C(CC(=O)NO)SC1=Nc1cc(-n2c(=O)cc(C(F)(F)F)n(C)c2=O)c(F)cc1Cl (stereo not drawn) [Compound 162]",
    "ASSAY SYSTEM": "ECHCG (Barnyardgrass)",
    "NUMBER": 0.0
  },
  {
    "COMPOUND": "Cn1c(C(F)(F)F)cc(=O)n(-c2cc(N=C3SCC(=O)N3C3CC3)c(Cl)cc2F)c1=O [Compound 152]",
    "ASSAY SYSTEM": "ECHCG (Barnyardgrass)",
    "NUMBER": 2.0
  }
]

----------
Test system: CYPSE (Flatsedge)
Assay: Preemergence weed control under flooded paddy conditions
Assay type: in vivo, Cyperus serotinus
Conditions: 0.2500 kg/ha, rated 3-4 weeks after treatment
Reported herbicidal effect rating, CYPSE values follow for various compounds

[
  {
    "COMPOUND": "Cc1cccc(CN2C(=O)CSC2=Nc2cc(-n3c(=O)cc(C(F)(F)F)n(C)c3=O)c(F)cc2Cl)c1",
    "herbicidal effect rating, CYPSE": 7.0
  },
  {
    "COMPOUND": "Cn1c(C(F)(F)F)cc(=O)n(-c2cc(N=C3SCC(=O)N3CC(F)(F)F)c(Cl)cc2F)c1=O",
    "herbicidal effect rating, CYPSE": 9.0
  },
  {
    "COMPOUND": "Cn1c(C(F)(F)F)cc(=O)n(-c2cc(N=C3SCC(=O)N3Cc3ccccc3Cl)c(Cl)cc2F)c1=O",
    "herbicidal effect rating, CYPSE": 0.0
  },
  {
    "COMPOUND": "C=CCN1C(=O)C(CC(=O)NO)SC1=Nc1cc(-n2c(=O)cc(C(F)(F)F)n(C)c2=O)c(F)cc1Cl (centres unmarked)",
    "herbicidal effect rating, CYPSE": 3.0
  },
  {
    "COMPOUND": "Cn1c(C(F)(F)F)cc(=O)n(-c2cc(N=C3SCC(=O)N3Cc3ccc(S(N)(=O)=O)cc3)c(Cl)cc2F)c1=O",
    "herbicidal effect rating, CYPSE": 0.0
  }
]

----------
System: CHEAL (Lambsquarters, Common)
Experiment: Postemergence herbicidal evaluation
Assay type: in vivo, Chenopodium album
Conditions: postemergence, rate 0.0313 kg/ha

[
  {
    "MOLECULE": "CCOC(=O)CN1C(=O)C(CC(=O)NS(=O)(=O)c2ccccc2)SC1=Nc1cc(-n2c(=O)cc(C(F)(F)F)n(C)c2=O)c(F)cc1Cl (centres unmarked)",
    "herbicidal rating CHEAL": 7.0
  },
  {
    "MOLECULE": "Cn1c(C(F)(F)F)cc(=O)n(-c2cc(N=C3SCC(=O)N3Cc3ccc(S(N)(=O)=O)cc3)c(Cl)cc2F)c1=O",
    "herbicidal rating CHEAL": 7.0
  },
  {
    "MOLECULE": "Cn1c(C(F)(F)F)cc(=O)n(-c2cc(N=C3SCC(=O)N3Cc3cccc(C(F)(F)F)c3)c(Cl)cc2F)c1=O",
    "herbicidal rating CHEAL": 9.0
  },
  {
    "MOLECULE": "Cn1c(C(F)(F)F)cc(=O)n(-c2cc(N=C3SCC(=O)N3C3CC3)c(Cl)cc2F)c1=O",
    "herbicidal rating CHEAL": 4.0
  },
  {
    "MOLECULE": "Cn1c(C(F)(F)F)cc(=O)n(-c2cc(N=C3SCC(=O)N3CC(F)(F)F)c(Cl)cc2F)c1=O",
    "herbicidal rating CHEAL": 9.0
  }
]

----------
System: CYPSE (Flatsedge)
Assay: Preemergence weed control under flooded paddy conditions
Format: in vivo, Cyperus serotinus
Conditions: 0.1250 kg/ha, rated 3-4 weeks after treatment

[
  {
    "COMPOUND": "CCOC(=O)CN1C(=O)C(C(=O)OCC)SC1=Nc1cc(-n2c(=O)cc(C(F)(F)F)n(C)c2=O)c(F)cc1Cl (stereo not shown)",
    "herbicidal effect rating, CYPSE": 0.0
  },
  {
    "COMPOUND": "Cn1c(C(F)(F)F)cc(=O)n(-c2cc(N=C3SCC(=O)N3C3CC3)c(Cl)cc2F)c1=O",
    "herbicidal effect rating, CYPSE": 0.0
  },
  {
    "COMPOUND": "C=CCN1C(=O)C(CC(=O)NS(=O)(=O)C(C)C)SC1=Nc1cc(-n2c(=O)cc(C(F)(F)F)n(C)c2=O)c(F)cc1Cl (stereo not shown)",
    "herbicidal effect rating, CYPSE": 0.0
  },
  {
    "COMPOUND": "CCOC(=O)CN1C(=O)C(SC)SC1=Nc1cc(-n2c(=O)cc(C(F)(F)F)n(C)c2=O)c(F)cc1Cl (stereo not shown)",
    "herbicidal effect rating, CYPSE": 9.0
  },
  {
    "COMPOUND": "CCCN1C(=O)CSC1=Nc1cc(-n2c(=O)cc(C(F)(F)F)n(C)c2=O)c(F)cc1Cl",
    "herbicidal effect rating, CYPSE": 9.0
  },
  {
    "COMPOUND": "C#CC(C)N1C(=O)CSC1=Nc1cc(-n2c(=O)cc(C(F)(F)F)n(C)c2=O)c(F)cc1Cl (stereo not shown)",
    "herbicidal effect rating, CYPSE": 0.0
  },
  {
    "COMPOUND": "Cn1c(C(F)(F)F)cc(=O)n(-c2cc(N=C3SCC(=O)N3Cc3ccc(Br)cc3)c(Cl)cc2F)c1=O",
    "herbicidal effect rating, CYPSE": 0.0
  },
  {
    "COMPOUND": "CCOC(=O)CN1C(=O)C(CC(=O)NS(=O)(=O)C(C)C)SC1=Nc1cc(-n2c(=O)cc(C(F)(F)F)n(C)c2=O)c(F)cc1Cl (stereo not shown)",
    "herbicidal effect rating, CYPSE": 9.0
  },
  {
    "COMPOUND": "CCOC(=O)CN1C(=O)CSC1=Nc1cc(N2C(=O)CC(C(F)(F)F)CC2=O)c(F)cc1Cl",
    "herbicidal effect rating, CYPSE": 0.0
  },
  {
    "COMPOUND": "CN1C(=O)C(CC(=O)NO)SC1=Nc1cc(-n2c(=O)cc(C(F)(F)F)n(C)c2=O)c(F)cc1Cl (stereo not shown)",
    "herbicidal effect rating, CYPSE": 9.0
  }
]
